Values were extracted from patent US20210147507A1.

Tested on: chimeric Caspase-9 polypeptide
Sequence (P62942 2-108 F37V limits assumed): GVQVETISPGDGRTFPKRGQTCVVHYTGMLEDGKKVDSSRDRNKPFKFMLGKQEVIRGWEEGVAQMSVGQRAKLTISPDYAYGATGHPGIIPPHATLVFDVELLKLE
Assay: Caspase-9 mutant classes and basal activity (Table 5)
Assay type: cell-based
Conditions: Caspase-9 mutant class; basal (ligand-independent) signaling compared with unmodified chimeric Caspase-9

{"Molecule": "Q328R (protein) GFGDVGALESLRGNADLAYILSMEPCGHCLIINNVNFCRESGLRTRTGSNIDCEKLRRRFSSLHFMVEVKGDLTAKKMVLALLELARQDHGALDCCVVVILSHGCQASHLQFPGAVYGTDGCPVSVEKIVNIFNGTSCPSLGGKPKLFFIQACGGEQKDHGFEVASTSPEDESPGSNPEPDATPFQEGLRTFDRLDAISSLPTPSDIFVSYSTFPGFVSWRDPKSGSWYVETLDDIFEQWAHSEDLQSLLLRVANAVSVKGIYKQMPGCFNFLRKKLFFKTSASRA", "Basal Activity": "Increased"}
{"Molecule": "D330S (protein) GFGDVGALESLRGNADLAYILSMEPCGHCLIINNVNFCRESGLRTRTGSNIDCEKLRRRFSSLHFMVEVKGDLTAKKMVLALLELARQDHGALDCCVVVILSHGCQASHLQFPGAVYGTDGCPVSVEKIVNIFNGTSCPSLGGKPKLFFIQACGGEQKDHGFEVASTSPEDESPGSNPEPDATPFQEGLRTFDQLSAISSLPTPSDIFVSYSTFPGFVSWRDPKSGSWYVETLDDIFEQWAHSEDLQSLLLRVANAVSVKGIYKQMPGCFNFLRKKLFFKTSASRA", "Basal Activity": "Decreased"}
{"Molecule": "T317E (protein) GFGDVGALESLRGNADLAYILSMEPCGHCLIINNVNFCRESGLRTRTGSNIDCEKLRRRFSSLHFMVEVKGDLTAKKMVLALLELARQDHGALDCCVVVILSHGCQASHLQFPGAVYGTDGCPVSVEKIVNIFNGTSCPSLGGKPKLFFIQACGGEQKDHGFEVASTSPEDESPGSNPEPDAEPFQEGLRTFDQLDAISSLPTPSDIFVSYSTFPGFVSWRDPKSGSWYVETLDDIFEQWAHSEDLQSLLLRVANAVSVKGIYKQMPGCFNFLRKKLFFKTSASRA", "Basal Activity": "Increased"}
{"Molecule": "S307A (protein) GFGDVGALESLRGNADLAYILSMEPCGHCLIINNVNFCRESGLRTRTGSNIDCEKLRRRFSSLHFMVEVKGDLTAKKMVLALLELARQDHGALDCCVVVILSHGCQASHLQFPGAVYGTDGCPVSVEKIVNIFNGTSCPSLGGKPKLFFIQACGGEQKDHGFEVASTSPEDEAPGSNPEPDATPFQEGLRTFDQLDAISSLPTPSDIFVSYSTFPGFVSWRDPKSGSWYVETLDDIFEQWAHSEDLQSLLLRVANAVSVKGIYKQMPGCFNFLRKKLFFKTSASRA", "Basal Activity": "Decreased"}
{"Molecule": "S196A (protein) GFGDVGALESLRGNADLAYILSMEPCGHCLIINNVNFCRESGLRTRTGSNIDCEKLRRRFSALHFMVEVKGDLTAKKMVLALLELARQDHGALDCCVVVILSHGCQASHLQFPGAVYGTDGCPVSVEKIVNIFNGTSCPSLGGKPKLFFIQACGGEQKDHGFEVASTSPEDESPGSNPEPDATPFQEGLRTFDQLDAISSLPTPSDIFVSYSTFPGFVSWRDPKSGSWYVETLDDIFEQWAHSEDLQSLLLRVANAVSVKGIYKQMPGCFNFLRKKLFFKTSASRA", "Basal Activity": "Decreased"}
{"Molecule": "F406T (protein) GFGDVGALESLRGNADLAYILSMEPCGHCLIINNVNFCRESGLRTRTGSNIDCEKLRRRFSSLHFMVEVKGDLTAKKMVLALLELARQDHGALDCCVVVILSHGCQASHLQFPGAVYGTDGCPVSVEKIVNIFNGTSCPSLGGKPKLFFIQACGGEQKDHGFEVASTSPEDESPGSNPEPDATPFQEGLRTFDQLDAISSLPTPSDIFVSYSTFPGFVSWRDPKSGSWYVETLDDIFEQWAHSEDLQSLLLRVANAVSVKGIYKQMPGCFNTLRKKLFFKTSASRA", "Basal Activity": "Decreased"}
{"Molecule": "N405Q-S196D (protein) GFGDVGALESLRGNADLAYILSMEPCGHCLIINNVNFCRESGLRTRTGSNIDCEKLRRRFSDLHFMVEVKGDLTAKKMVLALLELARQDHGALDCCVVVILSHGCQASHLQFPGAVYGTDGCPVSVEKIVNIFNGTSCPSLGGKPKLFFIQACGGEQKDHGFEVASTSPEDESPGSNPEPDATPFQEGLRTFDQLDAISSLPTPSDIFVSYSTFPGFVSWRDPKSGSWYVETLDDIFEQWAHSEDLQSLLLRVANAVSVKGIYKQMPGCFQFLRKKLFFKTSASRA", "Basal Activity": "Decreased"}
